compounds and their reported viability at 24 h, 10 µM
assay-notes: Cytotoxicity against LPS-induced mouse BV2 cells assessed as cell viability at 10 uM pretreated for 15 mins followed by LPS-stimulation measured after 24 hrs by MTT assay relative to control
Assay type: cell-based, BV-2
measurement-context: LPS-stimulated BV2 cells, read-out: Activity
Value expressed in %; do not type the unit.

Sample answers from the record:
{"smiles-code": "C[C@H]1C(=O)C=C2C=C3C(=O)C(C)(C)C[C@@]3(O)[C@@]21C", "observed-measurement": 23}
{"smiles-code": "C=C1C(=O)C[C@]2(O)[C@H](O)C3=C(CC(C)(C)C3=O)[C@]12C", "observed-measurement": 89}

Query :: Would you mind telling me what viability at 24 h, 10 µM value was observed for C=C1C(=O)C=C2C=C3[C@@H](O)C(C)(C)C[C@@]3(O)[C@]12C ?
Result :: 77

Query :: Return reported viability at 24 h, 10 µM; argument: C=C1C(=O)C[C@@]2(OC)C[C@]3(O)CC(C)(C)C[C@@H]3[C@]12C
Result :: 11

Query :: Record request: viability at 24 h, 10 µM value, item C=C1C(=O)C=C2C[C@@]3(O)CC(C)(C)C[C@H]3[C@]12C
Result :: 22

Query :: I'd like to know its viability at 24 h, 10 µM. The compound in question is C=C1[C@H](O)C[C@]2(O)C[C@]3(O)CC(C)(C)C[C@]3(O)[C@]12C
Result :: 73
